tested target: HIV-1 envelope glycoprotein (gp120) of virus VS001 (HIV-1)
procedure text: cell-based or functional assay
value kind: Neutralization IC50 (µg/mL)
Write it as a number; the unit µg/mL goes unstated.

Example results:
binder: 2.3.18-1 (antibody, human IgG1, kappa, V domains shown) VH: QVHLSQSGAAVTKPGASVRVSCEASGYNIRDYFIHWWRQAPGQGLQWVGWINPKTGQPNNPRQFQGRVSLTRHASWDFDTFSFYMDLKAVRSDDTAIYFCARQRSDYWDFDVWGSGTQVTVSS VL: DIQMTQSPSSLSARVGDRATITCQANGYLNWYQQRRGKAPKLLIYDGSKLERGVPARFSGSRWGQEYHLTISSLQPEDVATYFCQVYEFFGPGTRLDLKR
unit descriptor: µg/mL
Neutralization IC50: 2.37

binder: 3.1.9-1 (antibody, human IgG1, kappa, V domains shown) VH: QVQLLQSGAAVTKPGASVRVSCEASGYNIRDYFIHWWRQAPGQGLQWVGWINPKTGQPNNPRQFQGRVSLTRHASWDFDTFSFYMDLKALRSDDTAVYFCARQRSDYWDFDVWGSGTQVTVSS VL: DIQMTQSPSSLSARVGDTATITCQANGYLNWYQQRRGKAPKLLIYDGSKLERGVPARFSGRRWGQEYNLTINNLQPEDVATYFCQVYEFFGPGTRLDLKR
unit descriptor: µg/mL
Neutralization IC50: 0.16

Now take the following binder into account.
Would you mind telling me what Neutralization IC50 value was observed for 2.3.9-1 (antibody, human IgG1, kappa, V domains shown) VH: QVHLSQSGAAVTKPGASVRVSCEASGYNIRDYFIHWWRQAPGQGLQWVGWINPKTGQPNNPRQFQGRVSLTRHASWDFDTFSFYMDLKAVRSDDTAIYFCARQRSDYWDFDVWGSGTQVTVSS VL: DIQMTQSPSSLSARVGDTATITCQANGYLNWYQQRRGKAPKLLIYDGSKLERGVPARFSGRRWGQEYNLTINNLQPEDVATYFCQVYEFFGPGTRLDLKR ? 0.22

Reference source for all entries: patent US20220089698A1
